- target.or.system: [^125 I] CCK-8 binding sites (CCK receptor), Rat Brain (Rattus norvegicus, UniProt P30553)
- Construct: from tissue; host or cells: rat brain
- Sequence (P30553 whole entry): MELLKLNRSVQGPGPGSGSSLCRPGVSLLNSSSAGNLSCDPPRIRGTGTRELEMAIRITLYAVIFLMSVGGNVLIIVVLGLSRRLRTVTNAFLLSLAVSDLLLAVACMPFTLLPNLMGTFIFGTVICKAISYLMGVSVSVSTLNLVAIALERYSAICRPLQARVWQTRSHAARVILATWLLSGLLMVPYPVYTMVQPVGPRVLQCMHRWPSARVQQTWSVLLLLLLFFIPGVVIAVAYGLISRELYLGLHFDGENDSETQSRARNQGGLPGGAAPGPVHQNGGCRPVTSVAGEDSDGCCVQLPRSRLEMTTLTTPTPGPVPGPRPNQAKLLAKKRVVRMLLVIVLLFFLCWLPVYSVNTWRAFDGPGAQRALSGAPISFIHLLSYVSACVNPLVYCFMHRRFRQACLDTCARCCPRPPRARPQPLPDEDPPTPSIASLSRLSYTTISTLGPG
- measurement.description: Inhibition of [125I] CCK-8 binding, rat brain
- details: rat; IC50 pancreas / IC50 brain
Non-standard residues stand in square brackets, D forms with d. Residues, ends and D or L forms follow the SMILES beside them. *: point of attachment. sY = N[C@@H](Cc1ccc(OS(=O)(=O)O)cc1)C(=O)O; X1 = O=C(O)C[C@H](NS(=O)(=O)O)C(=O)*; NMeNle = CCCC[C@H](NC)C(=O)O; Nle = CCCC[C@H](N)C(=O)O
Respond with Condition met for Ratio Pancreas/Brain Rat values of 30 and above, Condition not met for values below.

Record CCCC[C@H](NC(=O)[C@H](Cc1ccc(O)cc1)NC(=O)[C@@H](N)CC(=O)O)C(=O)NCC(=O)N[C@@H](Cc1c[nH]c2ccccc12)C(=O)N(C)[C@@H](CCCC)C(=O)N[C@@H](CC(=O)O)C(=O)N[C@@H](Cc1ccccc1)C(N)=O [Compound 5] ; criterion: Ratio Pancreas/Brain Rat no lower than 30. Met?
Condition not met

Reported Ratio Pancreas/Brain Rat reaches at least 30 for CCCC[C@H](NC(=O)[C@H](Cc1ccc(OS(=O)(=O)O)cc1)NC(=O)[C@H](CC(=O)O)NS(=O)(=O)O)C(=O)NCC(=O)N[C@@H](Cc1c[nH]c2ccccc12)C(=O)N(C)[C@@H](CCCC)C(=O)N[C@@H](CC(=O)O)C(=O)N[C@@H](Cc1ccccc1)C(N)=O [Compound 10] (X1-[sY][Nle]GW[NMeNle]DF-NH2; N-terminus assumed) ?
Condition not met

API: above_or_equal(metric=Ratio Pancreas/Brain Rat, cutoff=30) for item CCCC[C@H](NC(=O)[C@H](Cc1c[nH]c2ccccc12)NC(=O)CNC(=O)[C@H](NC(=O)[C@H](Cc1ccc(O)cc1)NC(=O)[C@@H](N)CC(=O)O)C(C)C)C(=O)N[C@@H](CC(=O)O)C(=O)N[C@@H](Cc1ccccc1)C(N)=O [Compound 7, H-Asp-Tyr-D-Val-Gly-Trp-Nle-Asp-Phe-NH2]
Condition met

// inclusive: Ratio Pancreas/Brain Rat at least 30? input: CCCC[C@H](NC(=O)[C@H](Cc1c[nH]c2ccccc12)NC(=O)CNC(=O)[C@H](NC(=O)[C@H](Cc1ccc(OS(=O)(=O)O)cc1)NC(=O)[C@H](CC(=O)O)NS(=O)(=O)O)C(C)C)C(=O)N[C@@H](CC(=O)O)C(=O)N[C@@H](Cc1ccccc1)C(N)=O [Compound 12] (X1-[sY][dV]GW[Nle]DF-NH2; N-terminus and C-terminus assumed)
Condition met

Could you tell me if the measured Ratio Pancreas/Brain Rat of CCCC[C@H](NC(=O)[C@H](Cc1c[nH]c2ccccc12)NC(=O)CNC(=O)[C@H](CCCC)N(C)C(=O)[C@H](Cc1ccc(O)cc1)NC(=O)[C@@H](N)CC(=O)O)C(=O)N[C@@H](CC(=O)O)C(=O)N[C@@H](Cc1ccccc1)C(N)=O [Compound 4] reaches 30 or more?
Condition met

Others:
Please indicate if the recorded Ratio Pancreas/Brain Rat for CCCC[C@H](NC(=O)[C@H](Cc1c[nH]c2ccccc12)NC(=O)CNC(=O)[C@@H](NC(=O)[C@H](Cc1ccc(OS(=O)(=O)O)cc1)NC(=O)[C@H](CC(=O)O)NS(=O)(=O)O)C(C)C)C(=O)N[C@@H](CC(=O)O)C(=O)N[C@@H](Cc1ccccc1)C(N)=O [Compound 11] (X1-[sY]VGW[Nle]DF-NH2; N-terminus and C-terminus assumed) meets or exceeds 30.
Condition met
